- subjectOfTest: unphosphorylated-BTK kinase domain (UP-BTK), GST-tagged human BTK (389-659aa) (Homo sapiens (Human), UniProt Q06187)
- Sequence (Q06187 389-659): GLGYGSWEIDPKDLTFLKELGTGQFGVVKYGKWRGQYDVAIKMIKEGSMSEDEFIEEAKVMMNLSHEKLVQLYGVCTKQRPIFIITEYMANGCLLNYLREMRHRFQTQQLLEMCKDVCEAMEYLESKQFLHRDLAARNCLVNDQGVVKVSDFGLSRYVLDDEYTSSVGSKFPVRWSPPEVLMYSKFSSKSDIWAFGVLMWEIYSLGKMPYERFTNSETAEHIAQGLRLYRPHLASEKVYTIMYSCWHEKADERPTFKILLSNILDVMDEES
- assayDetails: BTK kinase Lanthascreen binding assay
- recordedConditions: negative log of the IC50 in molar; 60 minutes incubation, 50 nM Tracer 236
Labelling field: enter t if recorded BTK_I_binding pIC50 is less than 7. Enter f if it equals or exceeds that cut-off.

Cc1cc(Oc2ccccc2)ccc1N1C(=O)Nc2c(C(=O)N[C@H]3CCCOC3)sc3nccc1c23 (single isomer, unassigned) [Example 267]; t

Q: API: query returns whether the compound falls strictly under 7 in BTK_I_binding pIC50. Query: C=CC(=O)N1CCC[C@@H](NC(=O)c2sc3nccc4c3c2NC(=O)N4c2ccc(Oc3ccccc3)cc2C)C1 (single isomer, unassigned) [Example 9]
A: f

Q: Quick check: does C=CC(=O)N1CCC[C@H](NC(=O)c2sc3nccc4c3c2NC(=O)N4c2ccc(Oc3ccccc3)cc2C)C1 (single isomer, unassigned) [Example 44] have BTK_I_binding pIC50 under 7?
A: f

Q: Is BTK_I_binding pIC50 of Cc1cc(Oc2ccccc2)ccc1N1C(=O)Nc2c(C(=O)N[C@@H]3CCCN(C)C3)sc3nccc1c23 (single isomer, unassigned) [Example 127] strictly below 7?
A: f

Q: Is the reported BTK_I_binding pIC50 for CNC/C=C/C(=O)N1CCC[C@@H](NC(=O)c2sc3nccc4c3c2NC(=O)N4c2ccc(Oc3ccccc3)cc2C)C1 (single isomer, unassigned) [Example 23] strictly below 7?
A: f

----------
- subjectOfTest: unphosphorylated-BTK kinase domain (UP-BTK), GST-tagged human BTK (389-659aa) (Homo sapiens (Human))
- assayDetails: BTK kinase Lanthascreen binding assay
- recordedConditions: unphosphorylated-BTK kinase domain; 60 minutes incubation; pIC50 = negative log of the IC50 in molar
measuredMetric: BTK_I_binding pIC50
Provide a numeric answer; units are not to be included.

CN1CCC[C@@H](NC(=O)c2sc3nccc4c3c2NC(=O)N4c2c(Cl)ccc3c2OCO3)C1 (single isomer, unassigned) [Example 353]; 5.8
C=CC(=O)N1CCC[C@@H](NC(=O)c2sc3nccc4c3c2NC(=O)N4c2ccc(OC(F)(F)F)cc2C)C1 (single isomer, unassigned) [Example 505]; 7.8
C=CC(=O)N1C[C@H](NC(=O)c2sc3nccc4c3c2NC(=O)N4c2ccc(Oc3ccccc3)cc2C)C[C@H](OC)C1 (relative stereo) [Example 482]; 8.0
C=CC(=O)N1C[C@H](NC(=O)c2sc3nccc4c3c2NC(=O)N4c2ccc(Oc3ccccc3)cc2C)[C@H](OC)C1 (relative stereo) [Example 508]; 7.7
CCOC(C)(C)/C=C(\C#N)C(=O)N1CCC[C@@H](NC(=O)c2sc3nccc4c3c2NC(=O)N4c2ccc(Oc3ccccc3)cc2C)C1 (single isomer, unassigned) [Example 478]; 7.8

Q: Item under review: C=CC(=O)N1CCC[C@@H](NC(=O)c2sc3nccc4c3c2NC(=O)N4c2c(Cl)ccc3c2OCO3)C1 (single isomer, unassigned) [Example 321] . Reported BTK_I_binding pIC50?
A: 7.1

Q: Quick one: BTK_I_binding pIC50 of C=CC(=O)N1CC[C@H](NC(=O)c2sc3nccc4c3c2NC(=O)N4c2ccc(Oc3ccccc3)cc2C)C1 (single isomer, unassigned) [Example 518] ?
A: 7.6

----------
This section presents compounds with their documented BTK_I_binding pIC50 values.
- subjectOfTest: unphosphorylated-BTK kinase domain (UP-BTK), GST-tagged human BTK (389-659aa) (Homo sapiens (Human), UniProt Q06187)
- assayDetails: BTK kinase Lanthascreen binding assay
- recordedConditions: negative log of the IC50 in molar; 60 minutes incubation with 50 nM Tracer 236
Answer field: number only, no words.

Recorded results for 3 compounds are shown here.
O=C(CCCC(=O)NCCCOCCOCCOCCCNC(=O)CCCC[C@H]1SC[C@H]2NC(=O)N[C@H]21)NC/C=C/C(=O)N1CCCC(NC(=O)c2sc3nccc4c3c2NC(=O)N4c2ccc(Oc3ccccc3)cn2)C1 (some centres unmarked); 6.3
C=CC(=O)N1CCC[C@@H](NC(=O)c2sc3nccc4c3c2NC(=O)N4c2ccc(CC(C)C)nc2C)C1 (single isomer, unassigned) [Example 792]; 6.4
C=CC(=O)N[C@@H]1COC[C@@H]1NC(=O)c1sc2nccc3c2c1NC(=O)N3c1cnc(Oc2ccccc2)cc1C (stereo in doubt); 6.4

Q: For C=CC(=O)N1CCC[C@@H](NC(=O)c2sc3nccc4c3c2NC(=O)N4c2cnc(CC(C)C)cc2C)C1 (single isomer, unassigned) [Example 669] , what is its reported BTK_I_binding pIC50?
A: 8.1

Q: Recorded BTK_I_binding pIC50 for C=CC(=O)N1CCC[C@@H](NC(=O)c2sc3nccc4c3c2NC(=O)N4c2cnc(OCC(C)C)cc2C)C1 (single isomer, unassigned) [Example 766] , please?
A: 8.2

----------
- subjectOfTest: unphosphorylated-BTK kinase domain (UP-BTK), GST-tagged human BTK (389-659aa) (Homo sapiens (Human), UniProt Q06187)
- assayDetails: BTK kinase Lanthascreen binding assay
- recordedConditions: unphosphorylated-BTK kinase domain; 60 minutes incubation; pIC50 = negative log of the IC50 in molar
measuredMetric: BTK_I_binding pIC50
// return a plain number; no unit text

Record excerpt, results attached:
Cc1cc(Oc2ccccc2)ccc1N1C(=O)Nc2c(C(=O)N[C@H]3CCCN(C)C3)sc3nccc1c23 (single isomer, unassigned); 5.4
C=CC(=O)N1C[C@H](NC(=O)c2sc3nccc4c3c2NC(=O)N4c2ccc(Oc3ccccc3)cc2C)[C@@H](F)C1 (relative stereo); 7.8
Cc1cc(Oc2ccccc2)ccc1N1C(=O)Nc2c(C(=O)N[C@@H]3CCCN(C(=O)/C(C#N)=C/C4CC4)C3)sc3nccc1c23 (single isomer, unassigned); 7.7
CCOC(C)(C)/C=C(\C#N)C(=O)N1CCC[C@@H](NC(=O)c2sc3nccc4c3c2NC(=O)N4c2ccc(Oc3ccccc3)cc2C)C1 (single isomer, unassigned) [Example 487]; 7.6
C=CC(=O)N1CCC[C@@H](NC(=O)c2sc3nccc4c3c2NC(=O)N4c2ccc(OC(C)C)cc2C)C1 (single isomer, unassigned) [Example 417]; 5.9

Q: Suppose we examine the molecule C=CC(=O)N1CCC[C@H](NC(=O)c2sc3nccc4c3c2NC(=O)N4c2ccc(Oc3ccccc3)cc2C)C1 (single isomer, unassigned) ; what BTK_I_binding pIC50 value has been reported?
A: 6.2

Q: Returns the measured BTK_I_binding pIC50 for the input molecule. Input: C=C(Cl)C(=O)N1CCC[C@@H](NC(=O)c2sc3nccc4c3c2NC(=O)N4c2ccc(Oc3ccccc3)cc2C)C1 (single isomer, unassigned)
A: 7.1

Q: Request the reported BTK_I_binding pIC50 associated with CNC/C=C/C(=O)N1CCC[C@@H](NC(=O)c2sc3nccc4c3c2NC(=O)N4c2ccc(Oc3ccccc3)cc2C)C1 (single isomer, unassigned)
A: 6.1

Q: Item Cc1cc(Oc2ccccc2)ccc1N1C(=O)Nc2c(C(=O)N[C@@H]3CCCN(C(=O)/C=C/CN)C3)sc3nccc1c23 (single isomer, unassigned) [Example 367] has what recorded BTK_I_binding pIC50?
A: 6.2

Q: Report BTK_I_binding pIC50 for CCOC(C)(C)/C=C(\C#N)C(=O)N1CCC[C@@H](NC(=O)c2sc3nccc4c3c2NC(=O)N4c2ccc(Oc3ccccc3)cc2C)C1 (single isomer, unassigned) [Example 480] please.
A: 7.2

Q: // BTK_I_binding pIC50 lookup, key: C=CC(=O)N1C[C@H](NC(=O)c2sc3nccc4c3c2NC(=O)N4c2ccc(Oc3ccccc3)cc2C)[C@@H](OC)C1 (relative stereo)
A: 7.7

Q: Item C=CC(=O)N1C[C@H](NC(=O)c2sc3nccc4c3c2NC(=O)N4c2ccc(Oc3ccccc3)cc2C)C[C@@H](OC)C1 (relative stereo) has what recorded BTK_I_binding pIC50?
A: 8.2

Q: State the recorded BTK_I_binding pIC50 for this entry: C=CC(=O)N1C[C@H](O)C[C@@H](NC(=O)c2sc3nccc4c3c2NC(=O)N4c2ccc(Oc3ccccc3)cc2C)C1 (relative stereo)
A: 8.4

Q: Fill blank: measured BTK_I_binding pIC50 of the molecule Cc1cc(Oc2ccccc2)ccc1N1C(=O)Nc2c(C(=O)N[C@@H]3CCCNC3)sc3nccc1c23 (single isomer, unassigned) is ____.
A: 6.0

Q: Requested read-out: BTK_I_binding pIC50. Entry: Cc1cc(Oc2ccccc2)ccc1N1C(=O)Nc2c(C(=O)N[C@@H]3CCCN(C(=O)CN(C)C)C3)sc3nccc1c23 (single isomer, unassigned)
A: 6.2

Q: Quick one: BTK_I_binding pIC50 of C=CC(=O)N1C[C@@H](F)C[C@@H](NC(=O)c2sc3nccc4c3c2NC(=O)N4c2ccc(Oc3ccccc3)cc2C)C1 (relative stereo) ?
A: 8.0

These measurements were taken from patent US10822348B2.
